Cited source: patent US20230066286A1

- System: rat liver microsomes
- assay: Metabolic stability in rat liver microsomes (RLM)
- test.context: RLM assay; last time point 120 min
measure: RLM (metabolized or not)

In plain terms, `C=CCN(CC=C)CCc1c[nH]c2ccccc12` has a documented RLM (metabolized or not) of R

In plain terms, `CCNCCc1c[nH]c2cccc(O)c12` has a documented RLM (metabolized or not) of R

In plain terms, `COc1ccc2[nH]cc(CCN(C)C)c2c1` has a documented RLM (metabolized or not) of R

In plain terms, `CCN(C)CCc1c[nH]c2ccccc12` has a documented RLM (metabolized or not) of R

In plain terms, `CCN(CC)CCc1c[nH]c2ccc(O)cc12` has a documented RLM (metabolized or not) of R

In plain terms, `CNCCc1c[nH]c2ccccc12` has a documented RLM (metabolized or not) of R

Moving on to the next molecule.
In plain terms, `CCN(CC)CCc1c[nH]c2cccc(OC)c12` has a documented RLM (metabolized or not) of R
